assay: Ratio of inhibitory activities against human tryptase to that of human tissue plasminogen activator (tissue plasminogen activator)
readout_label: Ratio

// query What value of measured Ratio is listed for N=C(N)N1CCCC(C[C@H]2C(=O)N(C(=O)N3CCN(C(=O)CCCCCC4CCCCC4)CC3)[C@@H]2C(=O)O)C1 (stereo not given in full) ?
// result > 17400

// query What do you have for N=C(N)N1CCCC(C[C@H]2C(=O)N(C(=O)N3CCN(C(=O)OCCCOc4ccccc4)CC3)[C@@H]2C(=O)O)C1 (stereo not given in full) ?
// result > 19400

// query What do you have for N=C(N)N1CCC[C@H](C[C@H]2C(=O)N(C(=O)N3CCN(C(=O)CCCCCc4ccccc4)CC3)[C@@H]2C(=O)O)C1 ?
// result > 19400

// query What do you have for CC(C)C(OC(=O)N1CCN(C(=O)N2C(=O)[C@H](CC3CCCN(C(=N)N)C3)[C@H]2C(=O)O)CC1)C(C)C (single isomer, unassigned) ?
// result > 162

// query What do you have for CC(C)C(OC(=O)N1CCN(C(=O)N2C(=O)[C@H](CCCN=C(N)N)[C@H]2C(=O)O)CC1)C(C)C ?
// result 9170

// query What do you have for N=C(N)NCCC[C@H]1C(=O)N(C(=O)N2CCN(C(=O)CCCCCc3ccccc3)CC2)[C@@H]1C(=O)O ?
// result > 16500

// query What do you have for CC(C)(C)NC(=O)N1CCN(C(=O)N2C(=O)[C@H](CCCN=C(N)N)[C@H]2C(=O)O)CC1 ?
// result > 8250

// query What do you have for N=C(N)N1CCC[C@@H](C[C@H]2C(=O)N(C(=O)N3CCN(C(=O)CCCCCc4ccccc4)CC3)[C@@H]2C(=O)O)C1 ?
// result > 19400

// query What do you have for N=C(N)N1CCCC(C[C@H]2C(=O)N(C(=O)N3CCN(C(=O)CCCCCc4ccccn4)CC3)[C@@H]2C(=O)O)C1 (stereo not given in full) ?
// result > 7150

// query What do you have for CC(C)C(OC(=O)N1CCN(C(=O)N2C(=O)[C@H](CC3CCCN(C(=N)N)C3)[C@H]2C(=O)O)CC1)C(C)C (stereo in doubt; form 2) ?
// result > 465

// query What do you have for N=C(N)N1CCCC(C[C@H]2C(=O)N(C(=O)N3CCN(C(=O)NCCCCc4ccccc4)CC3)[C@@H]2C(=O)O)C1 (stereo not given in full) ?
// result > 19400

// query What do you have for CC(C)C(OC(=O)N1CCN(C(=O)N2C(=O)[C@H](CC3CCCN(C(=N)N)C3)[C@H]2C(=O)O)CC1)C(C)C (stereo in doubt; form 1) ?
// result > 465

// query What do you have for CN(CCCCc1ccccc1)C(=O)N1CCN(C(=O)N2C(=O)[C@H](CC3CCCN(C(=N)N)C3)[C@H]2C(=O)O)CC1 (stereo not given in full) ?
// result > 5500

// query What do you have for N=C(N)N1CCCC(C[C@H]2C(=O)N(C(=O)N3CCN(C(=O)CCCCCc4ccccc4)CC3)[C@@H]2C(=O)O)C1 (stereo not given in full) ?
// result > 19400

// query What do you have for CC(C)C(OC(=O)N1CCN(C(=O)N2C(=O)[C@H](CC3CN(C(=N)N)C3)[C@H]2C(=O)O)CC1)C(C)C ?
// result 2840
